Catalogue of IC50 readings, one per entry.
target: MAT2A (Homo sapiens (Human), UniProt P31153); assay: MAT2A biochemical test (inorganic phosphate colorimetric, PiColorLock); conditions: numeric values; read-out: MAT2A inhibitory Activity IC50
Sequence (P31153 whole entry): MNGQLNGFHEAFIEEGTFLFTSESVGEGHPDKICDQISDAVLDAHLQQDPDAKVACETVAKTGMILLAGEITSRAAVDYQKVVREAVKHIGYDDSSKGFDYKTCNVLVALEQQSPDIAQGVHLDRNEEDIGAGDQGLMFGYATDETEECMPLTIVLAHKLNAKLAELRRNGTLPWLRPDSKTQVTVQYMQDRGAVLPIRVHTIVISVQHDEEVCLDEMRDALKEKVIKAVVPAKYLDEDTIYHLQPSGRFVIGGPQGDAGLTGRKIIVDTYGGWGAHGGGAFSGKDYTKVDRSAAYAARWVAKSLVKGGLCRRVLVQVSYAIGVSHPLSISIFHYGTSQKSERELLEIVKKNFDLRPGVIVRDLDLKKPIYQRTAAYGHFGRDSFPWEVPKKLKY
property_name: IC50 (nM)

- Cn1cnc2c(=O)n(-c3cccc(C#N)c3)c3nc(C(F)(F)F)ccc3c21: 47.2
- Cc1ncccc1-n1c(=O)c2ncn(C)c2c2ccc(Cl)cc21 (atropisomer, axis not shown) [Compound 46]: 48.5
- Cn1cnc2c(=O)n(-c3cccnc3C(F)(F)F)c3nc(C(F)(F)F)ccc3c21 (single isomer, unassigned) [Compound 41-P2]: 22.3
- Cn1cnc2c(=O)n(-c3c(F)cccc3Cl)c3nc(C(F)(F)F)ccc3c21: 135
- CCOc1ccc2c3[nH]c(=O)[nH]c3c(=O)n(-c3ccc(OC(F)F)cc3)c2n1: 33
- O=c1c2ncn(CCO)c2c2ccc(C(F)(F)F)nc2n1-c1ccccc1Cl: 113
- Cn1cnc2c(=O)n(-c3cccc(F)c3Cl)c3nc(C(F)(F)F)ncc3c21: 78.3
- Cn1cc2c(n1)c(=O)n(-c1ccc(OC(F)F)cc1)c1nc(C(F)(F)F)ccc21: 102

* * *

pIC50 overview
target: MAT2A (Homo sapiens (Human), UniProt P31153); assay: MAT2A biochemical test (inorganic phosphate colorimetric, PiColorLock); settings: numeric values; read-out: MAT2A inhibitory Activity IC50
pIC50: −log10 of the molar value.
property_name: pIC50

- Cn1cnc2c(=O)n(-c3cccc(F)c3)c3nc(C(F)(F)F)ccc3c21: 7.32
- O=c1c2ncoc2c2ccc(C(F)(F)F)nc2n1-c1cccc(F)c1Cl: 7.31
- [2H]C([2H])([2H])n1cnc2c(=O)n(-c3cccc(F)c3Cl)c3nc(C(F)(F)F)ccc3c21: 7.31
- O=c1c2cn[nH]c2c2ccc(C(F)(F)F)nc2n1-c1ccccc1Cl: 6.89
- O=c1c2nc(C(F)(F)F)[nH]c2c2ccc(C(F)(F)F)nc2n1-c1ccccc1Cl: 7.53
- Cn1cnc2c(=O)n(-c3cccnc3C(F)(F)F)c3nc(C(F)(F)F)ccc3c21 (atropisomer, axis not shown) [Compound 41]: 7.25
- Cc1c(F)cccc1-n1c(=O)c2ncn(C)c2c2ccc(C(F)(F)F)nc21 (single isomer, unassigned) [Compound 43-P2]: 7.55
- Cn1cnc2c(=O)n(-c3cccc(F)c3Cl)c3nc(C(F)(F)F)ccc3c21 (atropisomer, axis not shown) [Compound 25]: 7.32
- O=c1c2ncoc2c2ccc(C(F)(F)F)nc2n1-c1ccccc1Cl: 7.19
- Cc1ncccc1-n1c(=O)c2ncoc2c2ccc(C(F)(F)F)nc21: 7.37
- O=c1[nH]c2c(=O)n(-c3ccccc3Cl)c3nc(C(F)(F)F)ccc3c2[nH]1: 7.16
- Cc1ccncc1-n1c(=O)c2ncn(C)c2c2ccc(C(F)(F)F)nc21: 6.78
- O=c1c2ncoc2c2ccc(C(F)(F)F)nc2n1-c1ccc(OC(F)F)cc1: 6.91
- Cn1cnc2c(=O)n(-c3cnccn3)c3nc(C(F)(F)F)ccc3c21: 6.47
- Cn1cnc2c(=O)n(-c3cccnc3C3CC3)c3nc(C(F)(F)F)ccc3c21 (single isomer, unassigned) [Compound 42-P2]: 7.69
- Cn1cnc2c(=O)n(-c3cccnc3C3CC3)c3cc(Cl)ccc3c21 (single isomer, unassigned) [Compound 49-P2]: 7.73

* * *

pIC50 by entry:
Target: MAT2A (Homo sapiens (Human))
Assay: MAT2A biochemical test (inorganic phosphate colorimetric, PiColorLock)
Settings: numeric values; read-out: MAT2A inhibitory Activity IC50
Source text: Test Example 1. Biochemical Test The brief introduction of the test principle: L-methionine and ATP can be converted into SAM, inorganic phosphate, and inorganic diphosphate under the catalysis of MAT2A enzymes. The content of inorganic phosphate in the sample can be quantitatively determined by adding a developer such as ammonium molybdate or the like to the enzymatic reaction mixture, thereby reflecting the enzymatic activity of MAT2A. […]
pIC50: −log10 of the molar value.
property_name: pIC50

• Cn1cnc2c(=O)n(-c3ccc(F)cc3Cl)c3nc(C(F)(F)F)ccc3c21 = 6.92
• COc1c(F)cccc1-n1c(=O)c2ncn(C)c2c2ccc(C(F)(F)F)nc21 (single isomer, unassigned) [Compound 70-P2] = 7.42
• C#Cc1cccc(-n2c(=O)c3ncn(C)c3c3ccc(C(F)(F)F)nc32)c1Cl (single isomer, unassigned) [Compound 80-P2] = 7.49
• Cn1cnc2c(=O)n(-c3ccccc3)c3nc(C(F)(F)F)ccc3c21 = 7.19
• Cc1ncncc1-n1c(=O)c2ncn(C)c2c2ccc(C(F)(F)F)nc21 = 6.99
• COc1ccccc1-n1c(=O)c2ncn(C)c2c2ccc(C(F)(F)F)nc21 = 7.17
• Cn1cnc2c(=O)n(-c3cccnc3C(F)(F)F)c3cc(Cl)ccc3c21 (single isomer, unassigned) [Compound 47-P2] = 7.63

* * *

biological target: MAT2A (Homo sapiens (Human), UniProt P31153); assay: MAT2A biochemical test (inorganic phosphate colorimetric, PiColorLock); settings: numeric values; read-out: MAT2A inhibitory Activity IC50
pIC50: −log10 of the molar value.
Below is a list of entries, each paired with its recorded pIC50 value.
property_name: pIC50

- Cc1ncccc1-n1c(=O)c2ncn(C)c2c2ccc(C(F)(F)F)nc21 (single isomer, unassigned) [Compound 20-P1]: 7.69
- Cc1cnccc1-n1c(=O)c2ncn(C)c2c2ccc(C(F)(F)F)nc21: 6.09
- Cc1ncccc1-n1c(=O)c2ncn(C)c2c2ccc(Cl)cc21 (single isomer, unassigned) [Compound 46-P2]: 7.70
- Cc1ccc2c3c(ncn3C)c(=O)n(-c3ccccc3Cl)c2n1: 7.13
- Cn1cnc2c(=O)n(-c3cccnc3C(F)(F)F)c3cc(C(F)(F)F)ccc3c21: 7.27
- Cn1cnc2c(=O)n(-c3ccccc3Cl)c3nc(C(F)(F)F)ccc3c21: 7.16
- Cc1ncccc1-n1c(=O)c2ncn(C)c2c2ccc(C(F)(F)F)cc21: 7.33
- Cc1ccc2c3c(ncn3C)c(=O)n(-c3cccc(F)c3Cl)c2n1: 7.09

* * *

experiment: Metabolic stability in mouse liver microsomes; assay type: in vitro ADME; settings: CD-1, mouse, liver microsomes, pH 7.4; 1 μM compound, 0.5 mg/mL microsome, NADPH; read-out: Mouse liver microsome stability t1/2
Here, each record is paired with measured half-life at 1 μM data.
property_name: half-life at 1 μM

- Cn1cnc2c(=O)n(-c3cccnc3C3CC3)c3nc(C(F)(F)F)ccc3c21 (single isomer, unassigned) [Compound 42-P2]: 1.86 h
- Cc1ncccc1-n1c(=O)c2ncn(C)c2c2ccc(C(F)(F)F)cc21: > 5 h
- Cn1cnc2c(=O)n(-c3cccnc3C3CC3)c3cc(Cl)ccc3c21 (single isomer, unassigned) [Compound 49-P2]: > 5 h
- Cc1ncccc1-n1c(=O)c2ncoc2c2ccc(C(F)(F)F)nc21: > 5 h
- Cc1ncccc1-n1c(=O)c2ncn(C)c2c2ccc(C(F)(F)F)nc21 (atropisomer, axis not shown): > 5 h
- Cn1cnc2c(=O)n(-c3cccnc3C(F)(F)F)c3nc(C(F)(F)F)ccc3c21 (single isomer, unassigned) [Compound 41-P2]: > 5 h
- Cn1cnc2c(=O)n(-c3cccc(F)c3Cl)c3nc(C(F)(F)F)ccc3c21 (atropisomer, axis not shown) [Compound 25]: 4.78 h
- Cn1cnc2c(=O)n(-c3cccnc3C3CC3)c3cc(C(F)(F)F)ccc3c21 (single isomer, unassigned) [Compound 48-P2]: > 5 h
- Cn1cnc2c(=O)n(-c3cccc(F)c3Cl)c3nc(C(F)(F)F)ccc3c21 (single isomer, unassigned) [Compound 25-P2]: > 5 h

* * *

molecular target: MAT2A (Homo sapiens (Human)); test: MAT2A biochemical test (inorganic phosphate colorimetric, PiColorLock); conditions: class symbols; read-out: MAT2A inhibitory Activity IC50
pIC50: −log10 of the molar value.
property_name: pIC50

• Cn1cnc2c(=O)n(-c3ccc(Cl)cc3Cl)c3nc(C(F)(F)F)ccc3c21 = 6.30 to 7.00
• O=c1c2ncoc2c2ccc(C(F)(F)F)nc2n1-c1cccnc1C(F)(F)F (single isomer, unassigned) [Compound 86-P2] = > 7.00
• Cn1cnc2c(=O)n(-c3cccc(Cl)c3)c3nc(C(F)(F)F)ccc3c21 = 6.30 to 7.00
• O=c1c2ncoc2c2ccc(C(F)(F)F)nc2n1-c1ccc(OC(F)F)cc1 = 6.30 to 7.00
• Cc1ccc2c3c(ncn3C)c(=O)n(-c3ccccc3Cl)c2n1 = > 7.00

* * *

target: MAT2A (Homo sapiens (Human), UniProt P31153); assay: MAT2A biochemical test (inorganic phosphate colorimetric, PiColorLock); conditions: class symbols; read-out: MAT2A inhibitory Activity IC50
// values below are reported IC50
property_name: IC50

- Cc1cccc(-n2c(=O)c3ncn(C)c3c3ccc(C(F)(F)F)nc32)c1Cl: < 100 nM
- Cn1cnc2c(=O)n(-c3cccc(F)c3)c3nc(C(F)(F)F)ccc3c21: < 100 nM
- Cn1cnc2c(=O)n(-c3c(F)cccc3Cl)c3nc(C(F)(F)F)ccc3c21: 100 to 500 nM
- Cn1cnc2c(=O)n(-c3cnccn3)c3nc(C(F)(F)F)ccc3c21: 100 to 500 nM
- COc1ccc(-n2c(=O)c3ncn(C)c3c3ccc(C(F)(F)F)nc32)cc1: 100 to 500 nM
- Cn1cnc2c(=O)n(-c3cccnc3C3CC3)c3cc(C(F)(F)F)ccc3c21 (single isomer, unassigned) [Compound 48-P2]: < 100 nM
- Cc1ncccc1-n1c(=O)c2ncoc2c2ccc(C(F)(F)F)cc21 (single isomer, unassigned) [Compound 82-P2]: < 100 nM

Just for reference, patent US20240124454A1 is where these values come from.
